Target: Stimulator of interferon genes protein [154-378] (Mus musculus, UniProt Q3TBT3)
Sequence (Q3TBT3 whole entry): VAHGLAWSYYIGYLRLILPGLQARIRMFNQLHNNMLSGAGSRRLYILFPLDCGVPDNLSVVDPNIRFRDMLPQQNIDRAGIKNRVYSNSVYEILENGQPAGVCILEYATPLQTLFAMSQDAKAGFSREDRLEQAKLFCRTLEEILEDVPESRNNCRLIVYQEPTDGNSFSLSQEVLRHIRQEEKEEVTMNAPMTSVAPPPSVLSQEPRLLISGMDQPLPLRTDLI
Experimental readout: IC50

get_value(item= NC(=O)c1cnc2c(c1)nc1n2CCOP(=O)(S)OC[C@H]2O[C@@H](n3cnc4c(=O)[nH]c(N)nc43)[C@H](OP(=O)(S)OC1)[C@@H]2F (stereo partly specified) [US11161864, Example 37A] , readout=IC50) returns < 1000 nM
